// reported TA % per item
biological target: Glucocorticoid Receptor (GR) (Homo sapiens); construct: Cells were transfected the next day with MMTV-Luc (5 μg) and pGL4-hRLuc (0.1 μg); endogenous in cells; host or cells: HeLa; assay: Transactivation assay (MMTV-Luc reporter in HeLa cells); format: cell-based; conditions: comparison table; against maximal activation seen with dexamethasone
Just the number in %, nothing appended.

Examples with answers:
GIVEN_SMILES: COc1ccc(OCCCCNC(=O)[C@@]2(O)[C@H](C)C[C@H]3[C@@H]4CCC5=CC(=O)C=C[C@]5(C)[C@@]4(F)[C@@H](O)C[C@@]32C)cc1
TARGET_ENTITY: Glucocorticoid Receptor (GR) (Homo sapiens)
TA % (%): 26

GIVEN_SMILES: C[C@]12C=CC(=O)C=C1CC[C@@H]1[C@@H]2[C@@H](O)C[C@@]2(C)[C@H]1CC[C@]2(O)C(=O)CO
TARGET_ENTITY: Glucocorticoid Receptor (GR) (Homo sapiens)
TA % (%): 68

Here is the next item to consider.
Data request: Please supply the value of reported TA % for the item COc1ccc(OCCNC(=O)[C@@]2(O)[C@H](C)C[C@H]3[C@@H]4CCC5=CC(=O)C=C[C@]5(C)[C@@]4(F)[C@@H](O)C[C@@]32C)cc1
Data returned: 44

====

Biological target: Glucocorticoid Receptor (GR) (Homo sapiens)
Construct: Cells were transfected the next day with MMTV-Luc (5 μg) and pGL4-hRLuc (0.1 μg); endogenous in cells
Sequence (P04150 1-777): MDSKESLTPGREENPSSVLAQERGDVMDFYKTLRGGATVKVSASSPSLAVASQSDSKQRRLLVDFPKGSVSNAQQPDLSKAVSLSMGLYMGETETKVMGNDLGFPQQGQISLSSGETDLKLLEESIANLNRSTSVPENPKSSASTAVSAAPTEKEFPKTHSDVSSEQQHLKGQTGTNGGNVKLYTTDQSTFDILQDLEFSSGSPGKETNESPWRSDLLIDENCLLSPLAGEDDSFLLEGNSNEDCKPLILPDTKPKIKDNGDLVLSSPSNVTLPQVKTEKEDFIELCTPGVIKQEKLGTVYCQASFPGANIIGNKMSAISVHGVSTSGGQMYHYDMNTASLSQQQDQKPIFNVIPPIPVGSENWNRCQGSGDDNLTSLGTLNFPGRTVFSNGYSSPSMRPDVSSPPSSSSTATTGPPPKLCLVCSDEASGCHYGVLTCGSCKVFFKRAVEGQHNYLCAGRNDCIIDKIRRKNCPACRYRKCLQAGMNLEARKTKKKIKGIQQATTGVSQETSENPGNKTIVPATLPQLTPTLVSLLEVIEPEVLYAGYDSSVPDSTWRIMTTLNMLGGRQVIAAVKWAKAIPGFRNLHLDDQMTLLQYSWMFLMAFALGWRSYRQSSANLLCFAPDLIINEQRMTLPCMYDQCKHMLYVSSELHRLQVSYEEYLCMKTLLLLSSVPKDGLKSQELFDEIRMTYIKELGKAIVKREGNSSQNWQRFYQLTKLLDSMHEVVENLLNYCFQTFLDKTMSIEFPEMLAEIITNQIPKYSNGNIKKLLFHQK
Experiment: Transactivation assay (MMTV-Luc reporter in HeLa cells)
Conditions: concentration for half-maximal transactivation; HeLa, MMTV-Luc, 16 hours; mean; read-out: TA EC50
// reported EC50 per item
Just the number in µM, nothing appended.

Examples with answers:
COMPOUND: C[C@@H]1C[C@H]2[C@@H]3CCC4=CC(=O)C=C[C@]4(C)[C@@]3(F)[C@@H](O)C[C@]2(C)[C@@]1(O)C(=O)NCCCOc1ccc(C(=O)O)cc1 [Compound 19]
READING_UNIT: µM
EC50: 406

COMPOUND: C[C@@H]1C[C@H]2[C@@H]3CCC4=CC(=O)C=C[C@]4(C)[C@@]3(F)[C@@H](O)C[C@]2(C)[C@@]1(O)C(=O)NCCCc1ccccc1O [Compound 3]
READING_UNIT: µM
EC50: 1.15

Data request: Please supply the value of reported EC50 for the item C[C@@H]1C[C@H]2[C@@H]3CCC4=CC(=O)C=C[C@]4(C)[C@@]3(F)[C@@H](O)C[C@]2(C)[C@@]1(O)C(=O)NCCCc1ccc(F)cc1 [Compound 1]
Data returned: 0.868
